assay: Fluorescence and UV absorbance properties of the dyes in phosphate buffers of different pH, pKa from emission intensity ratio I/Io; settings: UV absorbance maximum, phosphate buffer, pH 10.00
# label = label 1 if λmaxpH 10.00 < 500 nm else label 0

Ask: Please determine if CC1(C)C(=CC=CC2=[N+](CCCCCC(=O)O)c3ccc(S(=O)(=O)[O-])cc3C2(C)C)Nc2ccc(S(=O)(=O)O)cc21 [Compound 3.39] is below 500 nm in terms of λmaxpH 10.00.
Reply: label 1

Ask: Here's an entry: CC1(C)C(/C=C/C=C/C=C2Nc3ccc4c(S(=O)(=O)O)cc(S(=O)(=O)O)cc4c3C2(C)C)=[N+](CCCCCC(=O)O)c2ccc(S(=O)(=O)[O-])cc21 [Compound 9] . Is its λmaxpH 10.00 below 500 nm?
Reply: label 0

Ask: I'd appreciate it if you could check whether C[N+]1=C(/C=C/C=C/C=C2/Nc3ccc(S(=O)(=O)O)cc3C2(C)C)C(C)(C)c2cc(CN)ccc21 [Compound 8] has λmaxpH 10.00 smaller than 500 nm.
Reply: label 0

Ask: Threshold test, λmaxpH 10.00 < 500 nm: CC[N+]1=C(/C=C/C=C/C=C2Nc3ccc(CC(=O)O)cc3C2(C)C)C(C)(C)c2cc(S(=O)(=O)[O-])ccc21 [Compound 5]
Reply: label 1

Ask: hey, is λmaxpH 10.00 for CC1(C)/C(=C\C=C\c2sc3ccccc3[n+]2CCCCS(=O)(=O)O)Nc2ccc(CC(=O)O)cc21 [Compound 6] lower than 500 nm or not?
Reply: label 1

Ask: Check if λmaxpH 10.00 falls below 500 nm for CC1(C)\C(=C/C=C/C=C/c2sc3ccccc3[n+]2CCCCCC(=O)O)Nc2ccc(S(=O)(=O)O)cc21 [Compound 7] .
Reply: label 0

###

For each entry below, report its λmax pH 5.00 value.
assay: Fluorescence and UV absorbance properties of the dyes in phosphate buffers of different pH, pKa from emission intensity ratio I/Io; details: UV absorbance maximum, phosphate buffer, pH 5.00
Please give a number only; it is taken to be in nm.

Reported λmax pH 5.00 ( CC1(C)C(=C/C=C/C=C/C2=[N+](CCCCCC(=O)NN)c3ccc(S(=O)(=O)[O-])cc3C2(C)C)Nc2ccc(S(=O)(=O)O)cc21 [Compound 10] ) = 653

Input CC1(C)C(=C/C=C/C=C/C2=[N+](CCCCS(=O)(=O)[O-])c3ccc(CC(=O)O)cc3C2(C)C)Nc2ccc(S(=O)(=O)O)cc21 [Compound 4] . Output λmax pH 5.00: 650

Reported λmax pH 5.00 of CC1(C)/C(=C\C=C\c2sc3ccccc3[n+]2CCCCS(=O)(=O)O)Nc2ccc(CC(=O)O)cc21 [Compound 6] : 552

###

test: Fluorescence and UV absorbance properties of the dyes in phosphate buffers of different pH, pKa from emission intensity ratio I/Io; settings: UV absorbance maximum, phosphate buffer, pH 5.00
observable: λmax pH 5.00 (nm)
Supply the numeric figure in nm, leaving out any unit text.

For this compound ( `C[N+]1=C(/C=C/C=C/C=C2/Nc3ccc(S(=O)(=O)O)cc3C2(C)C)C(C)(C)c2cc(CN)ccc21` ), measured λmax pH 5.00 is 650

Measured λmax pH 5.00 of `CC[N+]1=C(/C=C/C=C/C=C2Nc3ccc(CC(=O)O)cc3C2(C)C)C(C)(C)c2cc(S(=O)(=O)[O-])ccc21` : 650

get_value(item= `CC1(C)\C(=C/C=C/C=C/c2sc3ccccc3[n+]2CCCCCC(=O)O)Nc2ccc(S(=O)(=O)O)cc21` , readout=λmax pH 5.00) returns 640

λmax pH 5.00 for `CC1(C)C(=CC=CC2=[N+](CCCCCC(=O)O)c3ccc(S(=O)(=O)[O-])cc3C2(C)C)Nc2ccc(S(=O)(=O)O)cc21` is 550

Per the record, `CC1(C)C(/C=C/C=C/C=C2Nc3ccc4c(S(=O)(=O)O)cc(S(=O)(=O)O)cc4c3C2(C)C)=[N+](CCCCCC(=O)O)c2ccc(S(=O)(=O)[O-])cc21` has λmax pH 5.00 of 655

Data origin, for the record: patent EP1394219A1
